- Test system: Epidermal growth factor receptor (Homo sapiens), P00533 [L861Q]
- Sequence (P00533 whole entry L861Q): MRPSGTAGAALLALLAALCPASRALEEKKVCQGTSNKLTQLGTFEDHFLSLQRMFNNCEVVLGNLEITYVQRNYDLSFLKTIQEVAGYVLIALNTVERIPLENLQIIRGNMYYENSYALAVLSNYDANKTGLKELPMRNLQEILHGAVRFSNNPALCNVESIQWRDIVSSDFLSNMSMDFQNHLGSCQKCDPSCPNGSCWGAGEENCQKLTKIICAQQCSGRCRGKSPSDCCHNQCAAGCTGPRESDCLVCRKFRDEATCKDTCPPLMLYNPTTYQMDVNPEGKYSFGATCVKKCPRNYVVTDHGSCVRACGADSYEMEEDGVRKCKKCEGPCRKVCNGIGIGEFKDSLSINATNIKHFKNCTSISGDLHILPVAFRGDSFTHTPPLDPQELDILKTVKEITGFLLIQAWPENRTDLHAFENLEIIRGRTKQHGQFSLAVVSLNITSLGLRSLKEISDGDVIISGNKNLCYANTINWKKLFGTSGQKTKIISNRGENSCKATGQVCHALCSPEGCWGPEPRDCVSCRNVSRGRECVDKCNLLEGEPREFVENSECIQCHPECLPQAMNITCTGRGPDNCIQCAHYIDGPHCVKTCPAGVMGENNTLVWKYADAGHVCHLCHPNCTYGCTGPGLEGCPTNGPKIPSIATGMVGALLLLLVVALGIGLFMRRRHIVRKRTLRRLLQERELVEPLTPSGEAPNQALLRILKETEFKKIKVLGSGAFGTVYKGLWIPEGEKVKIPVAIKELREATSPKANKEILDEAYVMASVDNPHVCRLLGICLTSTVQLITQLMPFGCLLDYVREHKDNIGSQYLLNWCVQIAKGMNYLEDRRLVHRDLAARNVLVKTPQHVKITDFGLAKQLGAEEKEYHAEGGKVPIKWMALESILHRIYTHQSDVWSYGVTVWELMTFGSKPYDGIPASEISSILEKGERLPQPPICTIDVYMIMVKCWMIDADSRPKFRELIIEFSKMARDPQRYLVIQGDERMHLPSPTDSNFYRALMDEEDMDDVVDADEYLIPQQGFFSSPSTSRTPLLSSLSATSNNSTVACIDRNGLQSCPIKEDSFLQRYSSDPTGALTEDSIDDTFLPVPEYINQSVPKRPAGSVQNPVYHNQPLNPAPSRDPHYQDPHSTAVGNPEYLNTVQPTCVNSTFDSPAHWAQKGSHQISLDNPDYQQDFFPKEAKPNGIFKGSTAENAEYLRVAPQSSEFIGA
- Applied conditions: at 1 µM
Value kind: inhibition (%)
// units = %; emit number, no label

[[record]]
compound_string = "CCc1cccc(NC(=O)Nc2ccc(Oc3ccc4nc(NC(=O)OC)[nH]c4c3)cc2)c1"
value_kind = "inhibition"
endpoint_value = 2.05


Now examine the next entry.
So what does the record say about inhibition for `COc1cc2ncn(-c3cc(O[C@H](C)c4ccccc4Cl)c(C(N)=O)s3)c2cc1OC` ?
5.37

###

# maps each entry to its inhibition
- Measurement target: Inhibitor of nuclear factor kappa-B kinase subunit alpha (Homo sapiens) (UniProt O15111);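 further: mean inhibition of IKKA, from the GSK PKIS data set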
- Sequence (whole entry): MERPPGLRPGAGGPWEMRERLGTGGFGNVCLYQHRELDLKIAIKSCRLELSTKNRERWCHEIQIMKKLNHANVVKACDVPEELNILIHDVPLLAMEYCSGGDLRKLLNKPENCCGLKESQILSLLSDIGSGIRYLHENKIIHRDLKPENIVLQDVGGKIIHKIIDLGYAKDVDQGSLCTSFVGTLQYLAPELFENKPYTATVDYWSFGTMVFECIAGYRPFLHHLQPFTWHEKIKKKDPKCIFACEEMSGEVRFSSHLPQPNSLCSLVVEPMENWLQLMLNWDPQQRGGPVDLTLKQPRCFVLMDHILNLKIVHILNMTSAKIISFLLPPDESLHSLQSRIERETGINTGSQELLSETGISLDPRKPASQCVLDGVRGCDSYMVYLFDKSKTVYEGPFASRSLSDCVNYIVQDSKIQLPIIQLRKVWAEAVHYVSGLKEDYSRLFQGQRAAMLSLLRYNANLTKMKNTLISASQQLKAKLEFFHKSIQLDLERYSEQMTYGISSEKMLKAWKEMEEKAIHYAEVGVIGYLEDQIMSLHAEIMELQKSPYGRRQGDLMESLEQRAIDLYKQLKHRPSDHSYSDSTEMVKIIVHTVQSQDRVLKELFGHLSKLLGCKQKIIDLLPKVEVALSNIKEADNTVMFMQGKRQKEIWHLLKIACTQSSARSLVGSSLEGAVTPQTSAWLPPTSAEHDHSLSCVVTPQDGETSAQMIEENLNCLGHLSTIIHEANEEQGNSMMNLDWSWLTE
- Applied conditions: at 1 µM
// units = %; emit number, no label

Before answering, review these 3 worked examples.
[[record]]
compound_string = "N#Cc1c(NC(=O)c2cccc3ccccc23)sc2c1CCCC2"
value_kind = "inhibition"
endpoint_value = 6.29

[[record]]
compound_string = "CCCN1CCC=C(c2ccc(Nc3nc(Nc4ccccc4C(N)=O)c4cc[nH]c4n3)c(C)c2)C1"
value_kind = "inhibition"
endpoint_value = 16

[[record]]
compound_string = "Cc1ccc(NC(=O)c2ccnc(N3CCCC3)c2)cc1-c1ccc(C(=O)NCC2CC2)cc1"
value_kind = "inhibition"
endpoint_value = 0.16


So what does the record say about inhibition for `COc1ccc(-c2nn3ncccc3c2-c2ccnc(Nc3ccc(Cl)c(C(F)(F)F)c3)n2)cc1` ?
3.48

So what does the record say about inhibition for `COc1cccc(-n2ncc3c(N/N=C/c4cccc(F)c4)ncnc32)c1` ?
6.98

So what does the record say about inhibition for `O=C1NC(=O)C(c2cccc(Cl)c2)=C1Nc1ccc(O)c(Cl)c1` ?
0.73

So what does the record say about inhibition for `CS(=O)(=O)CCNCc1nc(-c2ccc3ncnc(Nc4ccc(F)c(Cl)c4)c3c2)cs1` ?
-4.39

###

- Measurement target: 5'-AMP-activated protein kinase catalytic subunit alpha-1 (Homo sapiens) (UniProt Q13131);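 further: mean percent inhibition of the AMPK A1B1G1 complex (alpha1 beta1 gamma1) in the GSK PKIS kinase inhibitor screen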
- Sequence (Q13131 whole entry, looked up): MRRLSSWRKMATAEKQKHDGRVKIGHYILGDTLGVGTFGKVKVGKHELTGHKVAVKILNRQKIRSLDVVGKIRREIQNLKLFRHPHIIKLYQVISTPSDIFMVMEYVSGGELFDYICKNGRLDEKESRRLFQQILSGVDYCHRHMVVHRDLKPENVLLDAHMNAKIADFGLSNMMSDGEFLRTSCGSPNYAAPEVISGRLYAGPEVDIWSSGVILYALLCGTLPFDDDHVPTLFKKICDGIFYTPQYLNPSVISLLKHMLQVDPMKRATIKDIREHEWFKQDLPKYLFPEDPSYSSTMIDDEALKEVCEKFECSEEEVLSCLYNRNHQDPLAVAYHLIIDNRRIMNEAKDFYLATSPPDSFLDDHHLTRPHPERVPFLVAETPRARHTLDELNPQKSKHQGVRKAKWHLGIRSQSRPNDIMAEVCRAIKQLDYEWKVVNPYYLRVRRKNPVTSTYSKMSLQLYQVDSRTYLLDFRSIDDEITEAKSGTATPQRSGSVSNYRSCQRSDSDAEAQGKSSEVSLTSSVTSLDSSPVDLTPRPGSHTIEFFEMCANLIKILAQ
- Applied conditions: at 1 µM
# maps each entry to its inhibition
// units = %; emit number, no label

[[record]]
compound = "c1cnn2ncc(-c3ccnc(Nc4ccc5c(c4)OCCO5)n3)c2c1"
measurement_target = "5'-AMP-activated protein kinase catalytic subunit alpha-1 (Homo sapiens) (UniProt Q13131)"
endpoint_value = 11.6

[[record]]
compound = "Cc1ccc(C(=O)NC2CCCCC2)cc1-c1ccc(C(=O)NCC2CC2)cc1"
measurement_target = "5'-AMP-activated protein kinase catalytic subunit alpha-1 (Homo sapiens) (UniProt Q13131)"
endpoint_value = 0.6

[[record]]
compound = "NCc1ccc(-c2nc(-c3ccc(Cl)c(O)c3)c(-c3ccncc3)[nH]2)cc1"
measurement_target = "5'-AMP-activated protein kinase catalytic subunit alpha-1 (Homo sapiens) (UniProt Q13131)"
endpoint_value = -1.38


So what does the record say about inhibition for `O=C1NC(=O)C(c2ccc(Cl)cc2)=C1Nc1ccc(Cl)c(C(=O)O)c1` ?
-0.54

So what does the record say about inhibition for CC1=C(C(=O)Nc2ccc3[nH]ncc3c2)C(c2ccc(Cl)c(Cl)c2)CC(=O)N1 (centres undefined) ?
34.8

So what does the record say about inhibition for `NC(=O)c1cccc(Nc2nccc(Nc3cccc4[nH]ncc34)n2)c1` ?
18.5

So what does the record say about inhibition for `CS(=O)(=O)CCNCc1ccc(-c2ccc3ncnc(Nc4ccc(OCc5cccc(F)c5)c(C(F)(F)F)c4)c3c2)o1` ?
3.32

So what does the record say about inhibition for `Cc1ccc(NC(=O)c2ccnc(N3CCCC3)c2)cc1-c1ccc(C(=O)NCC2CC2)cc1` ?
7.1

So what does the record say about inhibition for `CCc1cccc(NC(=O)Nc2ccc(Oc3ccc4nc(NC(=O)OC)[nH]c4c3)cc2)c1` ?
0.41

###

- Measurement target: Serine/threonine-protein kinase D1 (Homo sapiens) (UniProt Q15139);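 further: each value is an averaged percent inhibition of PRKD1 kinase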
- Sequence (Q15139 whole entry): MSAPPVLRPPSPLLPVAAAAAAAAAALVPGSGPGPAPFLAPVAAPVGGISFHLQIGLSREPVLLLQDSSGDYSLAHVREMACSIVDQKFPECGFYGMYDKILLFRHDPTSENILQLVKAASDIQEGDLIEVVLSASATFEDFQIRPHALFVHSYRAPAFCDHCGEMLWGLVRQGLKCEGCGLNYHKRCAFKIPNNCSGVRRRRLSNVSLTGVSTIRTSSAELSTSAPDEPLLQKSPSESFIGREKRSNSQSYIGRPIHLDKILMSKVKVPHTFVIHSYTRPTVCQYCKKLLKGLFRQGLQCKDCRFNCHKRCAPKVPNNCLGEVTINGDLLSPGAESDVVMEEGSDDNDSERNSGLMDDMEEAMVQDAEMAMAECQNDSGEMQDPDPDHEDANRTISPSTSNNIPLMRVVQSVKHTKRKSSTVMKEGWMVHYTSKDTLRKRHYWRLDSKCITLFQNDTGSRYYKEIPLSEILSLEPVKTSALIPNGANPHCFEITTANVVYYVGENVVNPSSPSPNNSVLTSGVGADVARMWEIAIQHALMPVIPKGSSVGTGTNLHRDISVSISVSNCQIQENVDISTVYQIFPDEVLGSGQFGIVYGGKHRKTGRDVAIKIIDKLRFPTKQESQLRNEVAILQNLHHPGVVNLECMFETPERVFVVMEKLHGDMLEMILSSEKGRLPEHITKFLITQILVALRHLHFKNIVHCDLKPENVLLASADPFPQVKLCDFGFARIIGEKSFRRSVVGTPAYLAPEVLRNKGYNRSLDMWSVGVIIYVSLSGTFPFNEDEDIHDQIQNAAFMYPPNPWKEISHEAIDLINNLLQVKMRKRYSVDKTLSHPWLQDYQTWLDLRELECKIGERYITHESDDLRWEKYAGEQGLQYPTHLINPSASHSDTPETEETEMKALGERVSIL
- Applied conditions: at 1 µM
Value kind: inhibition (%)
// units = %; emit number, no label

[[record]]
compound_string = "NS(=O)(=O)c1cccc(-c2ccc3c(NC(=O)C4CC4)n[nH]c3c2)c1"
quantity_unit = "%"
endpoint_value = 0.65

[[record]]
compound_string = "NC(=O)c1ccc(-c2nc(-c3ccccn3)c(-c3ccc4c(c3)OCO4)[nH]2)cc1"
quantity_unit = "%"
endpoint_value = 5.43

[[record]]
compound_string = "CC(=O)Nc1cccc(C#Cc2cncnc2Nc2ccc(OCc3cccc(F)c3)c(Cl)c2)n1"
quantity_unit = "%"
endpoint_value = -2.44

[[record]]
compound_string = "c1cnn2ncc(-c3ccnc(Nc4ccc5c(c4)OCCO5)n3)c2c1"
quantity_unit = "%"
endpoint_value = 45.1

[[record]]
compound_string = "[O-][S+]1CCN(Cc2ccc(-c3ccc4ncnc(Nc5ccc(OCc6ccccc6)c(F)c5)c4c3)o2)CC1"
quantity_unit = "%"
endpoint_value = 4.27


Query for Serine/threonine-protein kinase D1 (Homo sapiens) (UniProt Q15139): what inhibition does the record show for `O=C1Nc2ccc(C(=O)c3ccco3)cc2C1=Cc1cc(Cl)c(O)c(Cl)c1` ?
6.32

###

# maps each entry to its inhibition
- Measurement target: Serine/threonine-protein kinase Chk2 (Homo sapiens)
- Applied conditions: at 0.1 µM
- Description: GSK_PKIS: CHEK2 mean inhibition at 0.1 uM [Nanosyn]
Give the figure together with its unit, number first.

[[record]]
compound = "CS(=O)(=O)CCNCc1ccc(-c2ccc3ncnc(Nc4ccc(OCc5ccccc5)c(Cl)c4)c3c2)o1"
value_kind = "inhibition"
endpoint_value = "-6.13%"

[[record]]
compound = "NCc1ccc(-c2nc(-c3ccc(Cl)c(O)c3)c(-c3ccncc3)[nH]2)cc1"
value_kind = "inhibition"
endpoint_value = "-0.52%"

[[record]]
compound = "[O-][S+]1CCN(Cc2ccc(-c3ccc4ncnc(Nc5ccc(OCc6ccccc6)c(F)c5)c4c3)o2)CC1"
value_kind = "inhibition"
endpoint_value = "2.23%"

[[record]]
compound = "NC(=O)c1cccc(Nc2nccc(Nc3cccc4[nH]ncc34)n2)c1"
value_kind = "inhibition"
endpoint_value = "-2.95%"

[[record]]
compound = "Nc1nc(-c2ccc3c(c2)C(=Cc2cc(Br)c(O)c(Br)c2)C(=O)N3)cs1"
value_kind = "inhibition"
endpoint_value = "-2.92%"

[[record]]
compound = "COc1cc2ncn(-c3cc(OCc4ccccc4Cl)c(C(N)=O)s3)c2cc1OC"
value_kind = "inhibition"
endpoint_value = "-4.95%"

[[record]]
compound = "O=C(Nc1n[nH]c2nc(-c3ccco3)c(Br)cc12)C1CC1"
value_kind = "inhibition"
endpoint_value = "2.64%"

[[record]]
compound = "COc1cc2ncn(-c3cc(O[C@@H](C)c4ccccc4Cl)c(C(N)=O)s3)c2cc1OC"
value_kind = "inhibition"
endpoint_value = "8.19%"

[[record]]
compound = "CCCN1CCC(Oc2cc(Nc3nc(Nc4cccc(F)c4C(N)=O)c4cc[nH]c4n3)c(OC)cc2Cl)CC1"
value_kind = "inhibition"
endpoint_value = "1.65%"

[[record]]
compound = "Cc1ccc(NC(=O)c2ccnc(N3CCCC3)c2)cc1-c1ccc(C(=O)NCC2CC2)cc1"
value_kind = "inhibition"
endpoint_value = "3.26%"


So what does the record say about inhibition for `Fc1cccc(COc2ccc(Nc3ncnc4sc(-c5cccs5)cc34)cc2Cl)c1` ?
-6.31%

So what does the record say about inhibition for `CCn1c(-c2nonc2N)nc2cncc(C(=O)N3CCNCC3)c21` ?
2.96%

So what does the record say about inhibition for CC1=C(C(=O)Nc2ccc3[nH]ncc3c2)C(c2ccc3ccccc3c2)CC(=O)N1 (stereo not given) ?
1.29%

###

# maps each entry to its inhibition
- System: Mast/stem cell growth factor receptor Kit (Homo sapiens), P10721 [V560G]
- Sequence (P10721 whole entry V560G): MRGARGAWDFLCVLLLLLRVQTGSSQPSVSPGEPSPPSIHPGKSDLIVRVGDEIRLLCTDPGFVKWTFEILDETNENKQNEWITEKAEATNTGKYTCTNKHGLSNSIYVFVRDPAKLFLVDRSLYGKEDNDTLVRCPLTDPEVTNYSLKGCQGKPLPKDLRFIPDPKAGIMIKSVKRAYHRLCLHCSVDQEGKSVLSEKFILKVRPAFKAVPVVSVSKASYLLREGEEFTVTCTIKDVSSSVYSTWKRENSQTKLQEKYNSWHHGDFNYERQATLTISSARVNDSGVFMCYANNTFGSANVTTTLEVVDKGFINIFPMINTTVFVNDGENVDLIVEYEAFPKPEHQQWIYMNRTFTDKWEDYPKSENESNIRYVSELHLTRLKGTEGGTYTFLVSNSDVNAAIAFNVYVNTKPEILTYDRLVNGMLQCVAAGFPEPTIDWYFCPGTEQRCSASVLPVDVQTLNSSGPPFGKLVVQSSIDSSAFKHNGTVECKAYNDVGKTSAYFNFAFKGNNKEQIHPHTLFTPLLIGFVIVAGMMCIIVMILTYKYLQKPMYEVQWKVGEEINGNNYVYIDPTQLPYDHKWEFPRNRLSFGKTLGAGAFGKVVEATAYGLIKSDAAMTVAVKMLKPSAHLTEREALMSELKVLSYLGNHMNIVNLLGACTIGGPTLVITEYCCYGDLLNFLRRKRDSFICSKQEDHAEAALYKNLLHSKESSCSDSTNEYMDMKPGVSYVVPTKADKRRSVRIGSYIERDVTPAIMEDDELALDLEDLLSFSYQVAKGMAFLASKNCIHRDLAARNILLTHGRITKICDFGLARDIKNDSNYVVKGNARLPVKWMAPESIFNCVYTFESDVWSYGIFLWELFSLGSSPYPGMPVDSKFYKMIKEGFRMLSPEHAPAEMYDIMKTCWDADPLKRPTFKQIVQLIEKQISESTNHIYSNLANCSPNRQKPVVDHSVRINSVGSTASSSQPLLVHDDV
- Applied conditions: at 1 µM
// units = %; emit number, no label

Before answering, review these 3 worked examples.
[[record]]
compound = "CCN1CCC(CC(=O)Nc2n[nH]c3nc(-c4cccs4)c(Br)cc23)CC1"
value_kind = "inhibition"
quantity_unit = "%"
endpoint_value = 2.07

[[record]]
compound = "CCn1c(-c2nonc2N)nc2cncc(C(=O)N3CC[C@H](N)C3)c21"
value_kind = "inhibition"
quantity_unit = "%"
endpoint_value = -1.61

[[record]]
compound = "COc1ccc(-c2nn3ncccc3c2-c2ccnc(Nc3ccc(Cl)c(C(F)(F)F)c3)n2)cc1"
value_kind = "inhibition"
quantity_unit = "%"
endpoint_value = -0.17


So what does the record say about inhibition for `NS(=O)(=O)c1ccc(N/N=C2\C(=O)Nc3ccc(C(=O)NCCc4c[nH]cn4)cc32)cc1` ?
3.01

So what does the record say about inhibition for `Nc1ncnc2occ(-c3ccc(NC(=O)Nc4cccc(C(F)(F)F)c4)cc3)c12` ?
97.8

So what does the record say about inhibition for `COc1cc(C)c(NC(=O)CN(C)C)cc1Nc1nc(Nc2cccc(F)c2C(N)=O)c2cc[nH]c2n1` ?
0.48

So what does the record say about inhibition for CC1=C(C(=O)Nc2ccc3[nH]ncc3c2)C(c2ccc(F)cc2)NC(=O)N1 (centres undefined) ?
0.31

So what does the record say about inhibition for `CCn1c(-c2nonc2N)nc2c(N3CCCC3)nccc21` ?
1.06

So what does the record say about inhibition for `CS(=O)(=O)CCN(CC#N)Cc1ccc(-c2ccc3ncnc(Nc4ccc(OCc5cccc(F)c5)c(Cl)c4)c3c2)o1` ?
-2.04
